A collection of compounds and their measured EC50
# Tested on: P. falciparum 3D7
# protocol_summary: Asexual blood-stage growth inhibition assay, SYBR green method
# Type: cell-based
# measurement_setup: Plasmodium falciparum, 3D7, 72 h, ring-stage 3D7 parasites
# Procedure: Asexual blood-stage EC50 assays. […] Compound stocks prepared in DMSO were plated using a Tecan D300e automated low volume liquid handler. […] Data were analyzed by non-linear regression using GraphPad Prism to determine the EC50 by fitting to the built-in equation (log(inhibitor) vs response-variable slope with four parameters).
readout_label: EC50 (nM)

[[record]]
compound = "CCn1cc(F)c2c([C@@](O)(CC)c3ccc(C(F)(F)F)nc3)n(C)nc2c1=O (single isomer, unassigned)"
readout_label = "EC50"
measured_number = 1.2

[[record]]
compound = "Cn1nc2c(=O)n(C3CC3)ccc2c1[C@](N)(c1cnc(C(F)(F)F)c(Cl)c1)C1CC1 (single isomer, unassigned)"
readout_label = "EC50"
measured_number = 14

[[record]]
compound = "CC[C@@](N)(c1ccc(C(F)(F)F)c(Cl)c1)c1c2ncn(C3CC3)c(=O)c2nn1C (single isomer, unassigned)"
readout_label = "EC50"
measured_number = 0.91


* * *

# tested_on: P. falciparum DHODH (Plasmodium falciparum)
# Construct: His6 (N)
# protocol_summary: DHODH inhibition, steady-state DCIP assay (PfDHODH)
# measurement_setup: recombinant PfDHODH, DCIP method, 25°C, 5 nM enzyme
pIC50: −log10 of the molar value.
Short version: pIC50 at least 8 is label 1, less is label 0.

[[record]]
compound = "CCn1ccc2c([C@@](O)(CC)c3ccc(C(F)(F)F)nc3)n(C)nc2c1=O (single isomer, unassigned)"
label = "label 0"

[[record]]
compound = "CCn1cc(C2CC2)c2c([C@H](O)c3cnc(C(F)(F)F)c(Cl)c3)n(C)nc2c1=O (single isomer, unassigned)"
label = "label 0"

[[record]]
compound = "Cn1nc2c(=O)n(C3CC3)cnc2c1[C@](O)(c1ccc(C(F)F)c(C#N)c1)C(F)(F)F (single isomer, unassigned)"
label = "label 0"

[[record]]
compound = "Cn1nc2c(=O)n(C3CC3)cnc2c1[C@](O)(c1ccc(C(F)(F)F)nc1)C1CC1 (single isomer, unassigned)"
label = "label 0"

[[record]]
compound = "CC[C@@](O)(c1cnc(C(F)(F)F)c(Cl)c1)c1c2cnn(C3CC3)c(=O)c2nn1C1CC1 (single isomer, unassigned)"
label = "label 0"

[[record]]
compound = "Cn1nc2c(=O)n(C3CC3)ccc2c1[C@](N)(c1ccc(C(F)(F)F)c(Cl)c1)C(F)(F)F (single isomer, unassigned)"
label = "label 1"

[[record]]
compound = "CC(C)[C@@](O)(c1cnc(C(F)(F)F)c(Cl)c1)c1c2ccn(C3CC3)c(=O)c2nn1C (single isomer, unassigned)"
label = "label 0"

[[record]]
compound = "CCn1cc(F)c2c([C@@](O)(CC)c3ccc(C(F)(F)F)nc3)n(C)nc2c1=O (single isomer, unassigned)"
label = "label 0"

[[record]]
compound = "CCn1cc(C)c2c([C@H](N)c3ccc(C(F)(F)F)c(C#N)c3)n(C)nc2c1=O (single isomer, unassigned)"
label = "label 0"

[[record]]
compound = "CCn1cnc2c([C@](C)(O)c3ccc(C(F)(F)F)c(C#N)c3)n(C)nc2c1=O (single isomer, unassigned)"
label = "label 0"

[[record]]
compound = "CC[C@@](O)(c1ccc(C(F)(F)F)nc1)c1c2ncn(C3CC3)c(=O)c2nn1C (single isomer, unassigned)"
label = "label 0"

[[record]]
compound = "Cn1nc2c(=O)n(C3CC3)cnc2c1[C@](N)(c1ccc(C(F)(F)F)c(Cl)c1)C(F)(F)F (single isomer, unassigned)"
label = "label 1"

[[record]]
compound = "CC(C)n1cnc2c([C@](O)(c3ccc(C(F)(F)F)c(Cl)c3)C(F)(F)F)n(C)nc2c1=O (single isomer, unassigned)"
label = "label 1"

[[record]]
compound = "Cn1nc2c(=O)n(C3CC3)cnc2c1[C@](N)(c1ccc(C(F)(F)F)c(C#N)c1)C(F)(F)F (single isomer, unassigned)"
label = "label 0"

[[record]]
compound = "Cn1nc2c(=O)n(C3CC3)ncc2c1[C@](O)(c1ccc(C(F)(F)F)c(C#N)c1)C1CC1 (single isomer, unassigned)"
label = "label 0"


* * *

# tested_on: P. falciparum DHODH (Plasmodium falciparum, UniProt Q08210)
# Construct: His6 (N); made in house; host or cells: E. coli BL21-DE3 (phage-resistant)
# Sequence (Q08210 158-569): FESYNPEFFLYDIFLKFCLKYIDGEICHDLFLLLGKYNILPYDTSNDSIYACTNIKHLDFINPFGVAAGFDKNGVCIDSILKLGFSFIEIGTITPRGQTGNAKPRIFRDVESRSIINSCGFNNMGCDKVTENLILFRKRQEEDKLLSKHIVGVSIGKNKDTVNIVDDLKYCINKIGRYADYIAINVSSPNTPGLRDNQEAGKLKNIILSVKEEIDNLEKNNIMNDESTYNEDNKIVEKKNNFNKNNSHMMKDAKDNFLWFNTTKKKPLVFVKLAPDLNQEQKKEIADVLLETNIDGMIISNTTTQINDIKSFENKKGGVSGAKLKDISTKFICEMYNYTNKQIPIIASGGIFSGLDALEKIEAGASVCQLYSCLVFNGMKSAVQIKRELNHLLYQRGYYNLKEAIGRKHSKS
# protocol_summary: DHODH inhibition, steady-state DCIP assay (PfDHODH)
# Format: biochemical
# measurement_setup: recombinant PfDHODH, DCIP method, 25°C, 5 nM enzyme
A collection of compounds and their measured IC50
readout_label: IC50 (nM)

[[record]]
compound = "CCn1ccc2c([C@](O)(c3ccc(C(F)(F)F)nc3)C(C)C)n(C)nc2c1=O (single isomer, unassigned) [1-48]"
measured_number = 81

[[record]]
compound = "Cn1nc2c(=O)n(C3CC3)cnc2c1[C@](O)(c1ccc(C(F)(F)F)c(C#N)c1)C(F)(F)F (single isomer, unassigned) [5-56]"
measured_number = 18

[[record]]
compound = "CC[C@@](O)(c1ccc(C(F)(F)F)c(C#N)c1)c1c2cnn(C3CC3)c(=O)c2nn1C (single isomer, unassigned) [2-5]"
measured_number = 19

[[record]]
compound = "CCn1cc(C)c2c([C@H](O)c3ccc(Cl)c(F)c3)n(C)nc2c1=O (single isomer, unassigned) [1-30]"
measured_number = 18

[[record]]
compound = "CC[C@@](N)(c1cnc(C(F)(F)F)c(Cl)c1)c1c2ccn(C3CC3)c(=O)c2nn1C (single isomer, unassigned) [4-11]"
measured_number = 42

[[record]]
compound = "Cn1nc2c(=O)n(C3CC3)cnc2c1[C@](O)(c1ccc(C(F)(F)F)nc1)C(F)(F)F (single isomer, unassigned) [5-21]"
measured_number = 31

[[record]]
compound = "Cn1nc2c(=O)n(C3CC3)ccc2c1[C@](N)(c1cnc(C(F)(F)F)c(Cl)c1)C1CC1 (single isomer, unassigned) [4-9]"
measured_number = 44

[[record]]
compound = "Cn1nc2c(=O)n(C3CC3)cnc2c1[C@](O)(c1cnc(C(F)(F)F)c(C#N)c1)C(F)(F)F (single isomer, unassigned) [5-52]"
measured_number = 62

[[record]]
compound = "CC[C@@](O)(c1cnc(C(F)(F)F)c(Cl)c1)c1c2ccn(C3CC3)c(=O)c2nn1C (single isomer, unassigned) [1-14]"
measured_number = 14

[[record]]
compound = "Cn1nc2c(=O)n(C3CC3)cnc2c1[C@](O)(c1ccc(C(F)(F)F)c(C#N)c1)C(F)(F)F (single isomer, unassigned) [5-19]"
measured_number = 12

[[record]]
compound = "Cn1nc2c(=O)n(C3CC3)ncc2c1[C@](N)(c1ccc(C(F)(F)F)c(Cl)c1)C1CC1 (single isomer, unassigned) [4-16]"
measured_number = 17

[[record]]
compound = "Cn1nc2c(=O)n(C3CC3)ccc2c1[C@](N)(c1cnc(C(F)(F)F)c(Cl)c1)C(F)(F)F (single isomer, unassigned) [4-1]"
measured_number = 21

[[record]]
compound = "Cn1nc2c(=O)n(C3CC3)ccc2c1[C@](C)(N)c1ccc(C(F)(F)F)c(Cl)c1 (single isomer, unassigned) [4-4]"
measured_number = 12


* * *

# tested_on: Human DHODH (Homo sapiens)
# Construct: C-terminal His6-tagged HsDHODH residues 29-395 in pET-22b (start ^29MATGDE); His6 (C)
# Sequence (Q02127 29-395): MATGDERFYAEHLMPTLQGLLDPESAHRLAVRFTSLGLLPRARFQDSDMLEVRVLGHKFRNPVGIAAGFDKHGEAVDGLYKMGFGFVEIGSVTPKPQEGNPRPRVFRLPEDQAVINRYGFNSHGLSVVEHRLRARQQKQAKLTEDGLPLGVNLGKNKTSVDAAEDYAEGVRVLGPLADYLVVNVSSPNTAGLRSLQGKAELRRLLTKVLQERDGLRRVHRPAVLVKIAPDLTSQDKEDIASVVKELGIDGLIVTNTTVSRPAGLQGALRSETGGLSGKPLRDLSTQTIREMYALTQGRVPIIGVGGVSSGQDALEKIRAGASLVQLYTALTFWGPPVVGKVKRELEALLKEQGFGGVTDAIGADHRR
# protocol_summary: DHODH inhibition, steady-state DCIP assay (human DHODH)
# measurement_setup: recombinant HsDHODH, DCIP method, 25°C, 5 nM enzyme; top concentration 100 µM or 30 µM
readout_label: IC50 (µM)

[[record]]
molecule = "Cn1nc2c(=O)n(C3CC3)ncc2c1[C@](O)(c1ccc(C(F)(F)F)c(Cl)c1)C1CC1 (single isomer, unassigned)"
readout_label = "IC50"
relation_qualifier = ">"
measured_number = 30

[[record]]
molecule = "CCn1ccc2c([C@](C)(O)c3ccc(F)c(Cl)c3)n(C)nc2c1=O (single isomer, unassigned)"
readout_label = "IC50"
relation_qualifier = "="
measured_number = 80

[[record]]
molecule = "Cn1nc2c(=O)n(C3CC3)cnc2c1[C@](C)(O)c1cnc(C(F)(F)F)c(Cl)c1 (single isomer, unassigned)"
readout_label = "IC50"
relation_qualifier = ">"
measured_number = 30

[[record]]
molecule = "CC[C@@](O)(c1ccc(C(F)(F)F)nc1)c1c2ccn(C3CC3)c(=O)c2nn1C (single isomer, unassigned)"
readout_label = "IC50"
relation_qualifier = "="
measured_number = 5.3


* * *

# tested_on: P. falciparum DHODH (Plasmodium falciparum, UniProt Q08210)
# Construct: His6 (N)
# protocol_summary: DHODH inhibition, steady-state DCIP assay (PfDHODH)
# measurement_setup: recombinant PfDHODH, DCIP method, 25°C, 5 nM enzyme
# note: exactly 10 nM is not below, so it is F; use T for IC50 strictly under it

[[record]]
compound = "CCn1ncc2c([C@@](O)(CC)c3ccc(C(F)(F)F)c(Cl)c3)n(C)nc2c1=O (single isomer, unassigned)"
label = "T"

[[record]]
compound = "Cn1nc2c(=O)n(C3CC3)ccc2c1[C@](O)(c1ccc(C(F)(F)F)nc1)C1CC1 (single isomer, unassigned)"
label = "F"

[[record]]
compound = "CC[C@@](N)(c1ccc(F)c(Cl)c1)c1c2ncn(C3CC3)c(=O)c2nn1C (single isomer, unassigned)"
label = "F"

[[record]]
compound = "Cn1nc2c(=O)n(C3CC3)ccc2c1[C@](O)(c1ccc(F)c(Cl)c1)C1CC1 (single isomer, unassigned)"
label = "F"

[[record]]
compound = "Cn1nc2c(=O)n(C3CC3)ncc2c1[C@](O)(c1ccc(C(F)(F)F)c(Cl)c1)C1CC1 (single isomer, unassigned)"
label = "T"

[[record]]
compound = "CC[C@@](N)(c1ccc(C(F)(F)F)c(Cl)c1)c1c2ccn(C3CC3)c(=O)c2nn1C (single isomer, unassigned)"
label = "T"

[[record]]
compound = "Cn1nc2c(=O)n(C3CC3)cnc2c1[C@](C)(O)c1cnc(C(F)(F)F)c(Cl)c1 (single isomer, unassigned)"
label = "F"

